- System: Macaca fascicularis PRLR (mfPRLR.mmh; SEQ ID NO:403)
- Sequence (as listed by the source): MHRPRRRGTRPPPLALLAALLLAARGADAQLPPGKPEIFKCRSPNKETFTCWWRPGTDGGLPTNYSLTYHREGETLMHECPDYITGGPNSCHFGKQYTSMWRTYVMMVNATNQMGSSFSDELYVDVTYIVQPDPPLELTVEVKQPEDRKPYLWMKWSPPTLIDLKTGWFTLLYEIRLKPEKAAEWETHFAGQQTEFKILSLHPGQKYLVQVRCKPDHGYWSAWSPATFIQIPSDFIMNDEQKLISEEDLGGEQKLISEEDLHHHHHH
- Method Summary: Surface plasmon resonance (Biacore T200), antibody-capture format
- Format: binding
- Reported Conditions: 37° C., analyte mfPRLR.mmh
Readout: ka

- H1H6966N: anti-PRLR antibody, human IgG1 Fc form of H2M6966N of Table 1; HCVR/LCVR SEQ ID NOs 338/346 (antibody, V domains shown, human IgG1 Fc) VH: QVQLVQSGAEVQKPGASVKVSCKVSGYTLTALSIHWVRQAPGKGLEWMGNFDPGDGETIHAQKFQGRVTMTGDTSTDTAYMELSSLRSEDTAVYYCVGVTFDYWGQGTLVTVSS VL: EIVMTQSPATLSVSPGERATLSCRASQSVASNLAWYQQKPGQAPRLLLYGASTRATGIPARFSGSGSGTEFTLTISSLQSEDFALYYCQHYNNWPLTFGGGTKVEIK: 1.22e+06 M/s
- H1H6958N2: anti-PRLR antibody, receptor blocking, human IgG1 Fc form of H2M6958N2 of Table 1; HCVR/LCVR SEQ ID NOs 290/298 (antibody, V domains shown) VH: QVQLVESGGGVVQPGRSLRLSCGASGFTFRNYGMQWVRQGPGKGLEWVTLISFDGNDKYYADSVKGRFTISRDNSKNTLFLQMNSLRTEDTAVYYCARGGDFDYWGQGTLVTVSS VL: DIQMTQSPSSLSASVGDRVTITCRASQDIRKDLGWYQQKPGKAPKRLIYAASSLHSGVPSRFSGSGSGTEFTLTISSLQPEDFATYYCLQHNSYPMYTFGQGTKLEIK: 328000 M/s

Taken from patent US10925971B2.
